The values you see were collected from ChEMBL document CHEMBL1201862.

- System: CAKI-1
- PROTOCOL SUMMARY: NCI tumour cell line growth inhibition, 48 h
Active and inactive are the calls of the source. No stated cut-off is given here; in the data, active = GI50 up to about 1.1 µM and inactive = higher. Where a SMILES comes first, the peptide text is derived from it. Square brackets hold non-standard residues; d marks the D form. Bridges are numbered along the chain shown (N, C = ends). Peptide text beside a SMILES is read from it. The star is where a group is joined. * marks the point of attachment. Phe(4-NO2) = N[CH](Cc1ccc([N+](=O)[O-])cc1)C(=O)O; Cbz = O=C(OCc1ccccc1)*; Boc = CC(C)(C)OC(=O)*
ASSAY METRIC: GI50

Reported GI50 (CAKI-1) for entry CN(C(=O)C12C3(C(=O)O)C4C5(C(=O)O)C3C1(C(=O)O)C5C42C(=O)O)C(C)(C)C (stereo unspecified) is > 100 µM (inactive)

Noted GI50 for O=[N+]([O-])c1ccc2c(c1)C1=C(CO2)Cc2ccccc2O1 , tested on CAKI-1: 17.6 µM (inactive)

GI50 on CAKI-1 for Nc1c(-c2ccccc2)c2ccc([N+](=O)[O-])cc2c(=O)n1-c1cccc(C(=O)O)c1 is > 100 µM (inactive)

Entry CN(C)c1ccc(/C=C/C(=O)c2cc(C(C)(C)C)c(O)c(C(C)(C)C)c2)cc1 ; assay system CAKI-1; GI50 recorded at 1.14 µM (inactive)

CAKI-1 GI50 of O=[N+]([O-])C(=C1NCCN1)/C(Cl)=C(\Cl)Br is 16.3 µM (inactive)

Tested system CAKI-1; GI50 recorded for CN(C)c1ccc(C(C=C2c3ccccc3Sc3ccccc32)=C(C#N)C#N)cc1 was 65.9 µM (inactive)

# GI50 measured on CAKI-1 for item Cc1ccc2c(c1)nc(N)n[n+]2[O-] = > 100 µM (inactive)

// GI50 (CAKI-1) for CC1(C)C(=O)C2(C#N)CCC1C2 (stereo unspecified) = > 100 µM (inactive)

Readout GI50 for CCCCCCC(=O)C/C(CCC(=O)N(Cc1ccccc1)Cc1ccccc1)=N\Nc1ccc([N+](=O)[O-])cc1[N+](=O)[O-] , test system CAKI-1, was > 100 µM (inactive)

// assay CAKI-1, entry Clc1ccc(C2=Nc3ccccc3SC(c3cccs3)C2)cc1 (stereo unspecified) , GI50 value = 15.5 µM (inactive)

Hey, CAKI-1 data for CNC(=O)CCC(NC(=O)OC(C)(C)C)C(=O)NC(Cc1ccc([N+](=O)[O-])cc1)C(=O)NCC(=O)NC (stereo unspecified) (Boc-Glu(NHMe)-[Phe(4-NO2)]-Gly-NHMe; configuration not given here) : GI50 came out at > 100 µM (inactive)

Response field GI50 (CAKI-1) for item OC(c1cc2ccccc2[nH]1)C1(c2cccnc2)SCCCS1 (stereo unspecified) : > 100 µM (inactive)

I looked up COc1nc(OC)c2c(=O)oc(-c3ccccc3)cc2n1 and its GI50 for CAKI-1 was > 100 µM (inactive)

Tested on CAKI-1: c1ccc2c(Nc3ccc(Oc4ccc(Nc5c6ccccc6nc6ccccc56)cc4)cc3)c3ccccc3nc2c1 . Observed GI50: 1.63 µM (inactive)

Kindly note: CAKI-1, CC(C)C(=O)NS(=O)(=O)c1ccccc1 , GI50 value reported: > 100 µM (inactive)

# lookup: O=c1cn[nH]c(=S)n1/N=C/c1c[nH]c2ccccc12 on CAKI-1, GI50 = > 100 µM (inactive)

Noted GI50 for COC(=O)N1CCc2c(nc(N(C)CCO)[nH]c2=O)C1 , tested on CAKI-1: > 100 µM (inactive)

// returns GI50 for CNC(=O)CN(CC(=O)NC)C(=O)NC with CAKI-1; value = > 100 µM (inactive)

The molecule O=C(OC1C=C=CS(=O)(=O)CC#C/C=C\1)c1cnc2ccccc2n1 (stereo unspecified) , when measured on CAKI-1, yielded GI50 of > 100 µM (inactive)

# lookup: CCCCC1c2c([nH]c3ccccc23)C2C(=O)N(c3ccc(OC)cc3)C(=O)C2C1CCC (stereo unspecified) on CAKI-1, GI50 = 1.23 µM (inactive)

Entry Cc1cc(Cl)nc2ccc(Cc3ccc4nc(Cl)cc(C)c4c3)cc12 ; assay system CAKI-1; GI50 recorded at 39.8 µM (inactive)

Considering CCn1sc2ccccc2c1=O , its GI50 with CAKI-1 was recorded as 3.43 µM (inactive)

The measured GI50 that COC(=O)C1CCCCNC(=O)CCC(NC(=O)OCc2ccccc2)C(=O)N1 (stereo not drawn) (Cbz-Glu-Lys-OMe; lactam 1-2; configuration not given here) showed for CAKI-1 is > 100 µM (inactive)

Case COC(=O)C1=C(C(=O)OC)SC(=CC#CC=C2SC(C(=O)OC)=C(C(=O)OC)S2)S1 , CAKI-1, GI50 recorded as 25.5 µM (inactive)

Field GI50 (CAKI-1), entry [O-][S+](Nc1ccccc1)c1ccc(Cl)cc1 (stereo unspecified) : > 100 µM (inactive)

Entry CC(C)(Oc1ccc(/C=C/C(=O)c2ccc(Cl)cc2)cc1)C(=O)Nc1c(Cl)cccc1Cl , tested on CAKI-1, has a reported GI50 of 23.7 µM (inactive)

Field GI50 (CAKI-1), entry CCC1=CC2CN3Cn4c(c(COCc5c6n(c7ccccc57)CN5CC7C=C(CC)C5C6(C(=O)OC)C7)c5ccccc54)C(C(=O)OC)(C2)C13 : > 100 µM (inactive)

I looked up CC(=O)OC[C@H]1O[C@@H](O[C@H]2[C@H](OC(C)=O)C=CO[C@@H]2COC(C)=O)C(OC(C)=O)[C@H]2OC(C)(C)O[C@H]21 (stereo partly specified) and its GI50 for CAKI-1 was > 100 µM (inactive)

Let me check: OC(CC1CCCCN1)c1ccc2c(c1)oc1ccccc12 (stereo unspecified) , system CAKI-1, measured GI50 is 52.8 µM (inactive)

// molecule C/C(=N\NC(=S)NC(C)C)c1nc2cccnc2[nH]1 , assay CAKI-1, GI50 value: 18.2 µM (inactive)

Considering O=C(CCCCCCCCC(=O)N1C(=O)CC(=O)N(c2ccccc2)C1=S)N1C(=O)CC(=O)N(c2ccccc2)C1=S , its GI50 with CAKI-1 was recorded as > 100 µM (inactive)

// returns GI50 for O=C(O)CCc1nc2ccccc2[nH]1 with CAKI-1; value = > 100 µM (inactive)

Lab note: molecule Cc1c(C(=O)Nc2ccc(Cl)c(C(F)(F)F)c2)oc2cc(O)ccc2/c1=N\NC(N)=S tested on CAKI-1; recorded GI50 was > 100 µM (inactive)

Entry O=C(Nc1sccc1S(=O)(=O)c1ccc(Cl)cc1)c1ccc(F)cc1F under CAKI-1 had GI50 of 26.2 µM (inactive)

Measured GI50 (CAKI-1), entry O=C(/C=C/c1ccc[nH]1)c1ccccc1 : > 100 µM (inactive)

// assay CAKI-1, entry C=C(C)C1CCC2(CO)C(O)CC3(C)C(CCC4C5(C)CCC(O)C(C)(C)C5CCC43C)C12 (stereo unspecified) , GI50 value = 3.73 µM (inactive)

###

- System: TK-10
- PROTOCOL SUMMARY: NCI tumour cell line growth inhibition, 48 h
The source made the active and inactive calls. No stated cut-off is given here; in the data, active = GI50 up to about 1.1 µM and inactive = higher.
Field: GI50. Provide a value for each of the molecules that follow.

The value of GI50 measured for the molecule CCOP(=O)(OCC)C(Nc1cccc([N+](=O)[O-])c1)c1ccccc1 (stereo unspecified) turned out to be > 100 µM (inactive)

The recorded GI50 for CCc1cccc(C(C)C)c1NC(=O)CC1Sc2ccccc2NC1=O (stereo unspecified) is > 100 µM (inactive)

# molecule N=C(N)N/N=C/c1c[nH]c2ccccc12 ; its GI50 = > 100 µM (inactive)

Reported GI50 of Cc1ccc(S(=O)(=O)N/N=C(\c2nc3ccc(Cl)cc3nc2O)C(O)c2cccc([N+](=O)[O-])c2)cc1 (stereo unspecified) : > 100 µM (inactive)

The molecule listed as [O-][S+]1Nc2c(Cl)cc(Cl)c3c(Cl)cc(Cl)c(c23)N1 shows GI50 equal to 42.6 µM (inactive)

Looking up CN(C(=O)C12C3(C(=O)O)C4C5(C(=O)O)C3C1(C(=O)O)C5C42C(=O)O)C(C)(C)C (stereo unspecified) , I found its GI50 recorded as > 100 µM (inactive)

According to the records, this molecule O=C(Cc1nc2ccccc2o1)C(=O)Nc1cccc(C(F)(F)F)c1 displays GI50 of > 100 µM (inactive)

The molecule listed as Cc1cc(Cl)ccc1OCC(=O)Oc1c(Cl)c(Cl)c(Cl)c(Cl)c1Cl shows GI50 equal to 30.3 µM (inactive)

GI50 reading for Cc1cc(=O)oc2cc(OC(=O)N(CCCl)CCCl)ccc12 : > 100 µM (inactive)

Memo: c1ccc2c(c1)CCc1c(-c3n[nH]c4c3CCc3ccccc3-4)n[nH]c1-2 , reported GI50: > 100 µM (inactive)

The measured GI50 associated with CN(C)c1ccc(C(C=C2c3ccccc3Sc3ccccc32)=C(C#N)C#N)cc1 reads > 100 µM (inactive)

So, CNCCCNC(=S)Cn1cc(C)c(=O)[nH]c1=O ? Its GI50 was > 64.7 µM (inactive)

GI50 for COc1ccc([N+](=O)[O-])c2c(NCCCN(C)C)c(C)c(C)nc12 is > 100 µM (inactive)

Lab book: GI50 of CCOC(=O)/C(=C\c1cccc(C)c1)C(C)=O noted as 16.3 µM (inactive)

Record N#CC1CNC(N)NC1N (stereo unspecified) . Reported GI50: > 100 µM (inactive)

The molecule identified as COc1ccc(OC(C)=O)c2c1CCC=CC2=O registered its GI50 at 18.3 µM (inactive)

For this molecule ( O=C(O)/C=c1/c2ccccc2n2nc3ccccc3c12 ), measured GI50 is 30.3 µM (inactive)

Just so you know, measured GI50 for CC(=O)O[C@@H]1C(=O)N(c2ccccc2)[C@@H]1c1cc2ccccc2c2ccccc12 came out at 30.9 µM (inactive)

According to the records, this molecule CN(C)c1ccc(/C=C/C(=O)c2cc(C(C)(C)C)c(O)c(C(C)(C)C)c2)cc1 displays GI50 of 1.23 µM (inactive)

# molecule O=c1[nH]nc(Cc2ccccc2)n1/N=C/c1ccc(/C=N/n2c(Cc3ccccc3)n[nH]c2=O)cc1 ; its GI50 = 54 µM (inactive)

Sample C[C@H]1C=C2[C@@H]3CC(C)(C(=O)O)CC[C@]3(C)CC[C@]2(C)[C@]2(C)CC[C@H]3C(C)(C)[C@@H](OC(=O)c4cccc5c(=O)c6ccccc6[nH]c45)CC[C@]3(C)[C@@H]12 (stereo partly specified) ; GI50 observed: > 100 µM (inactive)
